Reported MIC Enterococcus faecium (GC 4556) values for a set of molecules
Test system: Enterococcus sp.
Test: in vitro antibacterial evaluation, MIC by broth dilution
Type: cell-based
Details: Enterococcus faecium (GC 4556); broth dilution, 18 hours at 35° C.
# unit: µg/mL | format: bare number

INSERT INTO measurements (molecule, measurement_target, quantity_measured, result_value) VALUES
  ('CC(C)CC(=O)OC1C(OC2C(CO)OC(Oc3ccc(CC4NC(=O)C(C(C)c5cccc(F)c5)NC(=O)CNC(=O)C(CO)NC(=O)C(C(O)C5CNC(=N)N5C5OC(CO)C(O)C(O)C5O)NC(=O)C(C(O)C5CNC(=N)N5)NC4=O)cc3)C(O)C2O)OC(CO)C(O)C1O (stereo not shown) [Example 264a]', 'Enterococcus sp.', 'MIC Enterococcus faecium (GC 4556)', 64);

Input line: Request the reported MIC Enterococcus faecium (GC 4556) associated with CCCCCCCC1OCC2OC(OC3C(CO)OC(Oc4ccc(CC5NC(=O)C(C(C)c6ccccc6)NC(=O)CNC(=O)C(CO)NC(=O)C(C(O)C6CNC(=N)N6C6OC(CO)C(O)C(O)C6O)NC(=O)C(C(O)C6CNC(=N)N6)NC5=O)cc4)C(O)C3O)C(O)C(O)C2O1 (stereo not shown) [Example 109]
Output line: 2
